- System: R275C/beta2Delta
- Assay Details: BK channel mutant inhibitors and activators – cell-based, U2OS BacMam, thallium flux, beta subunits, selectivity assay, profiling panel (AID 1259406);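 also: initial slope of Thallos dye fluorescence rise after thallium is added; log ratio against the mean of 0.3% DMSO vehicle wells on the same plate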
- Run Parameters: U2OS BacMam BK variants, at 30 µM
Activity calls are given as the source filed them.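 The calls were made as follows: active = thallium flux through the channel raised or lowered by more than 3 SD from vehicle-only wells, actives on both sides; inactive = the rest.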
Give your call using only these classes: active, inactive

COc1ccc(CC2c3cc(OC)c(OC)cc3CC[N+]2(C)CCC(=O)OCCCCCOC(=O)CC[N+]2(C)CCc3cc(OC)c(OC)cc3C2Cc2ccc(OC)c(OC)c2)cc1OC (centres undefined) :: inactive
Cn1c(NCCN(CCO)CCCc2ccc([N+](=O)[O-])cc2)cc(=O)n(C)c1=O :: inactive
CC1(C)O[C@@H]2C[C@H]3[C@@H]4C[C@H](F)C5=CC(=O)C=C[C@]5(C)[C@@]4(F)[C@@H](O)C[C@]3(C)[C@]2(C(=O)CO)O1 :: active
NS(=O)(=O)Cc1noc2ccccc12 :: inactive
COc1ccc2nc(S(=O)Cc3ncc(C)c(OC)c3C)[nH]c2c1 (centres undefined) :: inactive

Test call, this compound: "COc1cc(OC)c(C(=O)CCCN2CCCC2)c(OC)c1" inactive

Test call, this compound: "O=C(NCCO[N+](=O)[O-])c1cccnc1" inactive

Test call, this compound: NCC1CCC(C(=O)Oc2ccc(CCC(=O)O)cc2)CC1 (centres undefined) inactive

Test call, this compound: "CC(C)(C)NC(=O)[C@@H]1CN(Cc2cccnc2)CCN1C[C@@H](O)C[C@@H](Cc1ccccc1)C(=O)N[C@H]1c2ccccc2C[C@H]1O" inactive

---

- Assay Details: drug combination growth inhibition, ovarian cancer – cell-based, oncology-focused library, rucaparib conditional, profiling panel (AID 1508598)
- Run Parameters: patient-derived ovarian cancer cells, CellTiter-Glo viability, 144 h; at 0.00122 µM; OCI-C5x cells; without rucaparib; stronger effect = lower value
Calls of active or inactive are those of the source.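 The calls were made as follows: active = normalized viability below 100% at a tested concentration; inactive = the rest.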
The entries below come with measured viability values attached.

Would you please look over these solved cases?
O=c1c(O)c(-c2ccc(O)c(O)c2)oc2cc(O)cc(O)c12 :: 119% (inactive)
CC[C@@]1(O)C(=O)OCc2c1cc1n(c2=O)Cc2cc3c(CN(C)C)c(O)ccc3nc2-1 :: 92.9% (active)
O=NN(CCCl)C(=O)NC1CCCCC1 :: 123% (inactive)
N#Cc1ccc(C(c2ccc(C#N)cc2)n2cncn2)cc1 :: 113% (inactive)
Cn1nnc2c(C(N)=O)ncn2c1=O :: 109% (inactive)
COC(=O)Nc1nc2ccc(C(=O)c3cccs3)cc2[nH]1 :: 108% (inactive)
NC(=O)NO :: 112% (inactive)
CC(c1cc2ccccc2s1)N(O)C(N)=O (stereo not given) :: 121% (inactive)
COc1cc2c(Nc3ccc(Br)cc3F)ncnc2cc1OCC1CCN(C)CC1 :: 106% (inactive)

Please examine the following record next.
Form field: reported viability of "Cc1nc(-c2ccc(OCC(C)C)c(C#N)c2)sc1C(=O)O" 122% (inactive)

---

- Assay Details: compounds altering viability of human ES cells (AID 493140);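 also: cells exposed to compounds for four days before counting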
- Run Parameters: human embryonic stem cell survival screen; stronger effect = higher value
Response key: Satisfied means survival >= 4; Not satisfied means survival < 4.

Some solved cases for reference:
CN(C)CCCN1c2ccccc2Sc2ccc(C(F)(F)F)cc21 :: Satisfied
CC(=O)Nc1ccc(OCC(O)CNC(C)C)cc1 (centres undefined) :: Satisfied

Test whether the molecule NCC1CCC(C(=O)O)CC1 (centres undefined) records survival of 4 or higher. Satisfied

Test whether the molecule "CCCCOc1cc(C(=O)NCCN(CC)CC)c2ccccc2n1" records survival of 4 or higher. Satisfied

Test whether the molecule "Nc1cc(-c2ccncc2)c[nH]c1=O" records survival of 4 or higher. Not satisfied

Test whether the molecule "C[C@]12C=CC(=O)C=C1CC[C@H]1[C@@H]3C[C@@H](O)[C@](O)(C(=O)CO)[C@@]3(C)C[C@H](O)[C@@]12F" records survival of 4 or higher. Satisfied

Test whether the molecule "CN(C)[C@@H]1C(=O)C(C(N)=O)=C(O)[C@@]2(O)C(=O)C3=C(O)c4c(O)ccc(Cl)c4[C@@H](O)[C@H]3C[C@@H]12" records survival of 4 or higher. Not satisfied

Test whether the molecule "Cc1c(Cl)cccc1Nc1ccccc1C(=O)O" records survival of 4 or higher. Satisfied

Test whether the molecule "CS(=O)(=O)c1ccc([C@@H](O)[C@@H](CO)NC(=O)C(Cl)Cl)cc1" records survival of 4 or higher. Satisfied

---

The entries below come with measured nuclear beta-catenin stimulation values attached.
- Assay Details: Wnt pathway potentiators raising nuclear beta-catenin – imaging, WNT3A-conditioned medium, mouse C2C12, NPC library, primary screen (AID 1117326)
- Run Parameters: stimulation, at 2 µM, stronger effect = higher value
Respond numerically; units are % and should not be typed.

NCC1CCC(C(=O)O)CC1 (stereo not drawn) :: 0.5
CC(=O)O[C@H]1C[C@@H]2CC[C@@H]3[C@H](CC[C@@]4(C)[C@H]3C[C@H]([N+]3(C)CCCCC3)[C@@H]4OC(C)=O)[C@@]2(C)C[C@@H]1N1CCCCC1 :: -1.2
Cc1ccc(C(=O)Nc2ccc(S(=O)(=O)O)c3cc(S(=O)(=O)O)cc(S(=O)(=O)O)c23)cc1NC(=O)c1cccc(NC(=O)Nc2cccc(C(=O)Nc3cc(C(=O)Nc4ccc(S(=O)(=O)O)c5cc(S(=O)(=O)O)cc(S(=O)(=O)O)c45)ccc3C)c2)c1 :: -0.5
Oc1ccc(Cl)cc1Cc1cc(Cl)ccc1O :: 5.8

Form field: reported nuclear beta-catenin stimulation of "C[N+](C)(C)CCOC(N)=O" 2.3

Form field: reported nuclear beta-catenin stimulation of "O=c1c(-c2ccc(O)cc2)coc2cc(O)cc(O)c12" -1.1

Form field: reported nuclear beta-catenin stimulation of CN1[C@@H]2CC[C@H]1CC(OC(=O)C(O)c1ccccc1)C2 (stereo partly drawn) -2.6

Form field: reported nuclear beta-catenin stimulation of CC(=O)OC(C)C[N+](C)(C)C (stereo not drawn) 3.2

Form field: reported nuclear beta-catenin stimulation of "Cc1cn[nH]c1" -2

Form field: reported nuclear beta-catenin stimulation of "CN(C)CCC=C1c2ccccc2C=Cc2ccccc21" -0.8

Form field: reported nuclear beta-catenin stimulation of "O=C1c2ccccc2C(=O)c2c1ccc(O)c2O" 0.3

Form field: reported nuclear beta-catenin stimulation of "Nc1ccc(O)c(C(=O)O)c1" 0.6

Form field: reported nuclear beta-catenin stimulation of "Cc1cc2nc3c(=O)[nH]c(=O)nc-3n(C[C@H](O)[C@H](O)[C@H](O)CO)c2cc1C" 2.2

Form field: reported nuclear beta-catenin stimulation of "O=C(COc1ccc(Cl)cc1)N1CCN(Cc2ccc3c(c2)OCO3)CC1" -0.3

Form field: reported nuclear beta-catenin stimulation of "COc1ccc(-c2cc(C(F)F)nn2-c2ccc(S(N)(=O)=O)cc2)cc1F" 0.7

Form field: reported nuclear beta-catenin stimulation of C=CCSCC1Nc2cc(Cl)c(S(N)(=O)=O)cc2S(=O)(=O)N1 (stereo not drawn) 0.6

Form field: reported nuclear beta-catenin stimulation of "Cc1cc(C(C)(C)C)c(O)c(C(C)(C)C)c1" 0.1

Form field: reported nuclear beta-catenin stimulation of C=CC(N)CCC(=O)O (stereo not drawn) 0.5

Form field: reported nuclear beta-catenin stimulation of "CC(=O)Oc1cccc2c1C(=O)c1c(OC(C)=O)cc(C(=O)O)cc1C2=O" 3.4

Form field: reported nuclear beta-catenin stimulation of "CC/C(=C(/CC)c1ccc(O)cc1)c1ccc(O)cc1" -0.2

Form field: reported nuclear beta-catenin stimulation of "CN1CCC(OC(c2ccccc2)c2ccccc2)CC1" 1.6

Form field: reported nuclear beta-catenin stimulation of CC(=O)Nc1ccc(OCC(O)CNC(C)C)cc1 (stereo not drawn) 1.7

Form field: reported nuclear beta-catenin stimulation of "NC(=O)NO" 4

---

- Assay Details: growth inhibition of GSK3B-pretreated HCT116 cells – cell-based, CellTiter-Glo, 0.2 to 20 µM (AID 1117336)
- Run Parameters: HCT116 viability after GSK3B inhibitor, at 20 µM
Active and inactive are the calls of the source.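 The calls were made as follows: active = compounds lowering colon cancer cell viability after pretreatment blocking the GSK3B kinase; inactive = the rest.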
Give your call using only these classes: True (active), False (inactive)

Test call, this compound: "CNC[C@H](O)[C@@H](O)[C@H](O)[C@H](O)CO" False

Test call, this compound: "Nc1nc(N)nc(-c2cc(Cl)ccc2Cl)n1" False

Test call, this compound: "COC(=O)N/N=C/c1c[n+]([O-])c2ccccc2[n+]1[O-]" False

---

- Tested on: Hepatitis C virus NS3 helicase
- Assay Details: blockers of NS3h binding to DNA – biochemical, fluorescence polarization, NIH Clinical Collection, primary screen (AID 743270)
- Run Parameters: NS3 helicase binding to Cy5-dT15 DNA, stronger effect = higher value, concentration not given here
Assay Endpoint: inhibition (%)
Respond numerically; units are % and should not be typed.

Would you please look over these solved cases?
CN1[C@@H]2CC[C@H]1CC(OC(=O)c1c[nH]c3ccccc13)C2 (stereo partly drawn) :: -3.56
NCC1CCC(C(=O)Oc2ccc(CCC(=O)O)cc2)CC1 (stereo not drawn) :: -1.98
Nc1ccc(O)c(C(=O)O)c1 :: 3.56
Nc1[nH]c(=O)ncc1F :: -6.73
COc1cc(C)nc(-n2nc(C)cc2OC)n1 :: -0.22
CN1CCCCC1CCN1c2ccccc2Sc2ccc(S(C)=O)cc21 (stereo not drawn) :: -2.77

GET /values?readout=inhibition&system=Hepatitis C virus NS3 helicase&item= COc1ccc(CC2c3cc(OC)c(OC)cc3CC[N+]2(C)CCC(=O)OCCCCCOC(=O)CC[N+]2(C)CCc3cc(OC)c(OC)cc3C2Cc2ccc(OC)c(OC)c2)cc1OC (stereo not drawn) -1.09

GET /values?readout=inhibition&system=Hepatitis C virus NS3 helicase&item= "CCOc1cc(CC(=O)N[C@@H](CC(C)C)c2ccccc2N2CCCCC2)ccc1C(=O)O" 5.94
